- Test system: MDA-MB-361 (Breast Carcinoma);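 further: after 72 h of two-drug dosing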
- experiment: Bliss excess, mean over the matrix (fraction); higher = more synergy
reported endpoint: Bliss excess
Numbers only.

compound	subject of test	Bliss excess
Cc1cc2ncnn2cc1Nc1ncc2c(n1)n(C1CCOCC1)c(=O)n2C [AZD7648] + CCN(CCO)CCCOc1ccc2c(Nc3cc(CC(=O)Nc4cccc(F)c4)[nH]n3)ncnc2c1 [AZD2811] (first compound max 10 µM, 7x7, partner max 1 µM)	MDA-MB-361 (Breast Carcinoma)	-0.0082

Request: Reported Bliss excess, compound Cc1cc2ncnn2cc1Nc1ncc2c(n1)n(C1CCOCC1)c(=O)n2C [AZD7648] + CN(C)CCCOc1ccc(-c2ccc3ncc4c(c3c2)n(C2CCOCC2)c(=O)n4C)cn1 [AZD0156] (first compound max 10 µM, 7x7, partner max 1 µM) : ____
Result: -0.0656
